Reference source: ChEMBL document CHEMBL5058577

- System: HEK-293T
- assay-info: Multiplex assay against HEK293T
- Format: toxicity, cell-based
- condition-details: human, 24 h, 10 µM, compound concentration 10 uM, replicate 1
Reported Population Mitochondria Different-Phenotype (%) values for the following molecules.
Give the value in % but do not write % after it.

CC(C)(C)c1ccc(CSc2cnn(C(C)(C)C)c(=O)c2Cl)cc1; 68

Switching to the query record.
Recall the recorded Population Mitochondria Different-Phenotype (%) for CN1CCN2c3ccccc3Cc3ccccc3C2C1.Cl (stereo not drawn) [MIANSERIN HYDROCHLORIDE] with HEK-293T and state it.
31

====

- Test system: Fibroblast
- assay-info: Multiplex assay against human fibroblast
- Type: toxicity, cell-based
- condition-details: 24 h, 10 µM, compound concentration 10 uM, replicate 1
Non-standard residues stand in square brackets, D forms with d. Residues, ends and D or L forms follow the SMILES beside them.
property-measured: Population Apoptotic (%)
Answer with a number only, understood to be in %.

Study these solved cases before continuing.
COc1c(Nc2ccc(S(C)(=O)=O)nc2C)ncnc1OC1CCN(C(=O)OC(C)C)CC1 [ADP-597]; 52
CC(C)C[C@@H]1NC(=O)[C@@H](C(C)C)NC(=O)[C@@H]2CCCN2C(=O)[C@@H](CC(=O)O)NC(=O)[C@@H](Cc2c[nH]c3ccccc23)NC1=O [BQ-123] (cyclo(L[dW][dD]P[dV])); 50
O=C(NCCNCC(O)COc1ccc(O)cc1)N1CCOCC1.O=C(NCCNCC(O)COc1ccc(O)cc1)N1CCOCC1.O=C(O)/C=C/C(=O)O (stereo unspecified) [XAMOTEROL FUMARATE]; 62
Cc1cc(-c2ccc3c(c2)CC[C@H]3N2CC3(CCN(C(=O)Cc4cn5cc(C)sc5n4)CC3)C2)ncn1 [PF-5190457]; 44
CN1CCN(c2ccc(Nc3c4ccccc4nc4ccccc34)cc2)CC1.Cl.Cl.O; 77
CSc1nc(NC2CCCC2)c([N+](=O)[O-])c(NC2CCCC2)n1 [GS-39783]; 58
Cc1cc(NC(=O)NCCN2CCC(O)(Cc3ccccc3)CC2)c2ccccc2n1 [PALOSURAN]; 42
S=C(NCCCc1c[nH]cn1)NCCCN(Cc1ccc(Cl)c(Cl)c1)c1ccc(Br)cn1; 66
Nc1nc(CC(=O)Nc2ccc(CCNC[C@H](O)c3ccccc3)cc2)cs1 [MIRABEGRON]; 53
COc1cc(C(=O)N2CC[C@@H](O)[C@@H](N)C2)cc2nc(-c3cc4ccccc4n3CC3CC3)n(C)c12.Cl; 73

Switching to the query record.
Recorded Population Apoptotic (%) of O=c1ccc2ccc(OCCCCN3CCN(c4cccc5sccc45)CC3)cc2[nH]1 [BREXPIPRAZOLE] , please.
58

====

- Test system: Fibroblast
- assay-info: Multiplex assay against human fibroblast
- Type: toxicity, cell-based
- condition-details: 12 h, 10 µM, compound concentration 10 uM, replicate 2
Non-standard residues stand in square brackets, D forms with d. Residues, ends and D or L forms follow the SMILES beside them.
Returns one of label 1 or label 0; label 1 when Population Mitotic Cells (%) is >= 70%.

Known results for molecules:
CCCCC[C@H](O)/C=C/[C@H]1[C@H](O)CC(=O)[C@@H]1CCCCCCC(=O)O [ALPROSTADIL]; label 0
Cc1sc2c(c1C)C(c1ccc(Cl)cc1)=N[C@H](CC(=O)OC(C)(C)C)c1nnc(C)n1-2; label 0
CC(C)C[C@@H]1NC(=O)[C@@H](C(C)C)NC(=O)[C@@H]2CCCN2C(=O)[C@@H](CC(=O)O)NC(=O)[C@@H](Cc2c[nH]c3ccccc23)NC1=O [BQ-123] (cyclo(L[dW][dD]P[dV])); label 0
Nc1nc(-c2ccco2)c2cnn(Cc3ccccc3F)c2n1; label 0
C[C@H](NC(=O)CNC(=O)c1cccc(Cl)c1)c1ccccc1; label 0

# evaluate next
Assess whether reported Population Mitotic Cells (%) for N[C@](CC1c2ccccc2Oc2ccccc21)(C(=O)O)[C@H]1C[C@@H]1C(=O)O sits at 70% or higher.
label 1

====

- Test system: Fibroblast
- assay-info: Multiplex assay against human fibroblast
- Assay type: toxicity, cell-based
- condition-details: 12 h, 1 µM, compound concentration 1 uM, replicate 2
Non-standard residues stand in square brackets, D forms with d. Residues, ends and D or L forms follow the SMILES beside them.
Property: Population Fragmented Nuclei (%); scope: individual compounds
The reply should be a number in %, with the unit left off.

CC(C)(C)c1ccc(CSc2cnn(C(C)(C)C)c(=O)c2Cl)cc1; 27
CCC(=O)OCC(=O)[C@@]1(OC(=O)CC)[C@@H](C)C[C@H]2[C@@H]3CCC4=CC(=O)C=C[C@]4(C)[C@@]3(Cl)[C@@H](O)C[C@@]21C [BECLOMETHASONE DIPROPIONATE]; 30
Cc1cc(=O)n(C)c2cc(N3C(=O)CC[C@H](NS(=O)(=O)CC(C)C)[C@H]3c3ccc(Cl)cc3)ccc12; 20
Cl.Cl.OCCOCCN1CCN(C(c2ccccc2)c2ccc(Cl)cc2)CC1 (stereo unspecified) [HYDROXYZINE HYDROCHLORIDE]; 22
O=c1nc2[nH]c3ccccc3nc-2c(=O)[nH]1; 26
O=C(O)CCC/C=C\CC1C(O)CC(O)C1/C=C/C(O)COc1cccc(Cl)c1 (stereo unspecified); 22

// query Population Fragmented Nuclei (%) value for entry O=c1ccc2ccc(OCCCCN3CCN(c4cccc5sccc45)CC3)cc2[nH]1
33

Entry under review: COc1c(Nc2ccc(S(C)(=O)=O)nc2C)ncnc1OC1CCN(C(=O)OC(C)C)CC1 . Reported Population Fragmented Nuclei (%)?
27

Please report the recorded Population Fragmented Nuclei (%) for C[C@H](NC(=O)CNC(=O)c1cccc(Cl)c1)c1ccccc1 .
28

Which Population Fragmented Nuclei (%) is listed for CC(C)C[C@@H]1NC(=O)[C@@H](C(C)C)NC(=O)[C@@H]2CCCN2C(=O)[C@@H](CC(=O)O)NC(=O)[C@@H](Cc2c[nH]c3ccccc23)NC1=O [BQ-123] (cyclo(L[dW][dD]P[dV])) ?
22

# Population Fragmented Nuclei (%) lookup, item COc1ccc2c(c1OCc1ccccc1)C[C@@H](C(=O)O)N(C(=O)C(c1ccccc1)c1ccccc1)C2
21

Which measured Population Fragmented Nuclei (%) value corresponds to C[C@@H]1CC(=O)Nc2cccc(-c3ccc4c(c3)c(-c3cnn(C)c3)nn4C)c2N1 ?
26

I'd like to know its Population Fragmented Nuclei (%). The compound in question is COc1cc2nc(N3CCN(C(=O)COc4c(OC)cccc4C(C)C)CC3)nc(N)c2cc1OC.Cl.Cl
39

Would you kindly share the measured Population Fragmented Nuclei (%) for COC(c1ccccc1)(c1ccccc1)[C@H](Oc1nc(C)cc(C)n1)C(=O)O ?
18

Which value of Population Fragmented Nuclei (%) has been reported for CN1CCN(c2ccc(Nc3c4ccccc4nc4ccccc34)cc2)CC1.Cl.Cl.O in the records?
28

Item COCCCN1CCC(NC(=O)c2cc(Cl)c(N)c3c2OCC3)CC1 [PRUCALOPRIDE] has what recorded Population Fragmented Nuclei (%)?
31

====

Each entry below lists one item and its recorded Population Healthy Nuclei (%) value.
- System: Fibroblast
- assay-info: Multiplex assay against human fibroblast
- Type: toxicity, cell-based
- condition-details: 48 h, 1 µM, compound concentration 1 uM, replicate 2
Give a bare numeral; the unit % is implied.

These solved cases illustrate the format of a correct answer.
CN(C)C/C=C/C(=O)Nc1ccc(C(=O)N2CCCC(Nc3ncc(Cl)c(-c4c[nH]c5ccccc45)n3)C2)cc1 (configuration not stated); 40
COc1cc(Nc2ncc3c(n2)-c2ccc(Cl)cc2C(c2c(F)cccc2OC)=NC3)ccc1C(=O)O [ALISERTIB]; 42
CN1CCN2c3ccccc3Cc3ccccc3C2C1.Cl (configuration not stated) [MIANSERIN HYDROCHLORIDE]; 51

// lookup Population Healthy Nuclei (%) for COc1cc2nc(N3CCN(C(=O)COc4c(OC)cccc4C(C)C)CC3)nc(N)c2cc1OC.Cl.Cl
43

Need Population Healthy Nuclei (%), item OCCCNc1cc(-c2ccnc(Nc3cccc(Cl)c3)n2)ccn1
30

Could you tell me which Population Healthy Nuclei (%) is on file for CN1C[C@H](C(=O)N[C@]2(C)O[C@@]3(O)[C@@H]4CCCN4C(=O)[C@H](Cc4ccccc4)N3C2=O)C[C@@H]2c3cccc4[nH]cc(c34)C[C@H]21.CS(=O)(=O)O [DIHYDROERGOTAMINE MESYLATE] ?
50

So what does the record say about Population Healthy Nuclei (%) for Nc1nc(-c2ccco2)c2cnn(Cc3ccccc3F)c2n1 ?
48

====

- System: U2OS
- assay-info: Multiplex assay against U2OS
- Assay type: toxicity, cell-based
- condition-details: human, 48 h, 1 µM, compound concentration 1 uM, replicate 2
Threshold check on Population Fragmented Nuclei (%): strictly below 20% is MET; on or above 20% is NOT MET.

Dear reviewer, please state whether COc1cc(Nc2ncc3c(n2)-c2ccc(Cl)cc2C(c2c(F)cccc2OC)=NC3)ccc1C(=O)O has Population Fragmented Nuclei (%) strictly beneath 20%.
NOT MET

Quick check: does COc1cc2nc(N3CCN(C(=O)COc4c(OC)cccc4C(C)C)CC3)nc(N)c2cc1OC.Cl.Cl have Population Fragmented Nuclei (%) under 20%?
MET

Answer whether the compound COc1ccc2c(c1OCc1ccccc1)C[C@@H](C(=O)O)N(C(=O)C(c1ccccc1)c1ccccc1)C2 has Population Fragmented Nuclei (%) strictly less than 20%
MET

Decide: Population Fragmented Nuclei (%) of COc1cc2nc(N3CCN(C(=O)c4ccco4)CC3)nc(N)c2cc1OC.Cl [PRAZOSIN HYDROCHLORIDE] strictly below 20%?
MET

Consider COc1cc(OC2CCN(C(C)=O)CC2)ccc1C(=O)N1CCC(N2C(=O)OCc3ccccc32)CC1 . Does its Population Fragmented Nuclei (%) lie strictly below 20%?
NOT MET

Answer whether the compound CC(C)C[C@H](CO)Nc1nc(S[C@@H](C)c2ccccc2)nc2nc(N)sc12 has Population Fragmented Nuclei (%) strictly less than 20%
MET

Threshold test, Population Fragmented Nuclei (%) < 20%: C[C@@H]1CC(=O)Nc2cccc(-c3ccc4c(c3)c(-c3cnn(C)c3)nn4C)c2N1
MET

Could you please tell me whether Population Fragmented Nuclei (%) recorded for OCCCNc1cc(-c2ccnc(Nc3cccc(Cl)c3)n2)ccn1 is less than 20%?
NOT MET

Consider the compound Cc1cc(=O)n(C)c2cc(N3C(=O)CC[C@H](NS(=O)(=O)CC(C)C)[C@H]3c3ccc(Cl)cc3)ccc12 . Is its Population Fragmented Nuclei (%) strictly less than 20%?
MET

Quick check: Population Fragmented Nuclei (%) of N[C@](CC1c2ccccc2Oc2ccccc21)(C(=O)O)[C@H]1C[C@@H]1C(=O)O under 20%?
MET

Strictly below 20% in Population Fragmented Nuclei (%)? CCc1nn2c(C)cc(C)nc2c1Cc1ccc(-c2nnc(C3CCNCC3)o2)cc1
MET

I wonder whether Cc1sc2c(c1C)C(c1ccc(Cl)cc1)=N[C@H](CC(=O)OC(C)(C)C)c1nnc(C)n1-2 has Population Fragmented Nuclei (%) below 20%. Can you tell?
NOT MET

Say whether its Population Fragmented Nuclei (%) is strictly beneath 20%. Entry: Cc1cc(O)c(-c2ccc([C@@H](C)CN(C)C)cc2)c2c1[nH]c(=O)c1sccc12
NOT MET

Does the reported Population Fragmented Nuclei (%) of the following compound sit strictly below 20%? CCC(=O)OCC(=O)[C@@]1(OC(=O)CC)[C@@H](C)C[C@H]2[C@@H]3CCC4=CC(=O)C=C[C@]4(C)[C@@]3(Cl)[C@@H](O)C[C@@]21C [BECLOMETHASONE DIPROPIONATE]
MET
